Origin of the recorded values: PubChem BioAssay

# experiment-description: COS7 lysate on small-molecule microarray, probe aHis, 635 nm (AID 1123);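 further: z-score combines 667nm fluorescence intensity with signal-to-noise per printed compound spot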
# assay-context: COS7 cell lysate, fluorescence, higher = more signal
Assign True whenever composite z-score does not fall below -0.1; assign False whenever it does.

CC(C)CON=C1C[C@@H](O)[C@@H](O)[C@@H]2[C@@H]3C(=O)N(Cc4ccccc4)C(=O)[C@@H]3CC[C@@H]12 | False
CO[C@@H]1COC(=O)CC=C[C@@H](C)[C@@H]2C=C[C@H](O)[C@@H](COC(=O)CCC[C@H]1C)O2 | False
CCN1C(=O)[C@H]2[C@H]3[C@H](O)[C@H](O)CC(=NOC(C)CN4CCCCc5nc(C)c(C)cc54)[C@@H]3CC[C@H]2C1=O (stereo partly specified) | False
CCN1C(=O)[C@H]2[C@H]3[C@H](O)[C@H](O)CC(=NO[C@@H]4O[C@H](CO)[C@@H](O)[C@H](O)[C@H]4O)[C@@H]3CC[C@H]2C1=O | False

// query Identify whether the reported composite z-score of the following molecule is -0.1 or greater: "COC(=O)[C@@]1(Cc2ccccc2)[C@H]2c3cc(C(=O)N4CCCC4)n(Cc4ccccn4)c3C[C@H]2CN1C(=O)c1ccccc1"
// result True

// query Next up: "COCCOC(=O)N1C(=O)[C@@]2(c3cc(C#CCNC(N)=O)ccc31)[C@H](c1ccc(O)cc1)N1[C@H](c3ccccc3)[C@H](c3ccccc3)OC(=O)[C@H]1[C@@H]2C(=O)N1CCCCCCC1"
// result True

###

For each entry below, report its composite z-score value.
# experiment-description: binders of probe aHhip on microarray, primary screen, stem cell growth factor project, biochemical, small-molecule microarray, fluorescence 635/667 (AID 1087);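 further: score merges spot fluorescence at 667nm with spot signal to noise ratio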
# assay-context: higher = more signal
Give bare numbers.

Worked cases, answers included:
CO[C@@H]1COC(=O)[C@H](C)NC(=O)[C@@H](C)COC(=O)CCC[C@H]1C | -0.0296
O=C1[C@H]2[C@H]3[C@H](O)[C@H](O)CC(=NOC[C@@H](O)COCc4ccco4)[C@@H]3CC[C@H]2C(=O)N1c1ccc(F)cc1F | 0.177
CN(C)c1ccc(C(O)C2C=CC3C(=O)N(c4ccccc4)C(=O)C3N2Nc2ccccc2F)cc1 (stereo unspecified) | -0.212
O=C(NN=C1C[C@@H](O)[C@@H](O)[C@@H]2[C@@H]3C(=O)N(c4ccc(F)cc4F)C(=O)[C@@H]3CC[C@@H]12)OCc1ccccc1 | -0.0672
CC(CCN1CCc2nc(-c3ccccc3)c(-c3ccccc3)cc2C1)=NOC[C@@H](C)[C@H](OCc1ccccc1)C(C)C | -0.206

Your task in this section: give composite z-score for each listed record.
1. CC(=O)C[C@H](O)[C@@H](NC(=O)OC(C)(C)C)C(C)C
2. CO[C@H]1O[C@H](CO)[C@@H](OC(=O)Nc2ccc3c(c2)OCO3)[C@H](OC(=O)Nc2ccccc2-c2ccccc2)[C@@H]1OC(=O)Nc1ccccc1-c1ccccc1
3. COc1ccccc1CN1C(=O)c2ccccc2[C@@H](C(=O)NCC(F)(F)F)[C@@H]1c1ccc(CO)cc1
4. O=C(NN=C1C[C@@H](O)[C@@H](O)[C@@H]2[C@@H]3C(=O)N(c4cccc(Oc5ccccc5)c4)C(=O)[C@@H]3CC[C@H]12)OCc1ccccc1
5. C[N+](C)(C)CCCCCCNC(=O)[C@@H]1C[C@@H]2C(=O)N3CCC[C@H]3C(=O)N2[C@@H]1c1cccc(OCCO)c1
6. C=CCNC(=O)[C@H]1[C@@H]2C(=O)O[C@@H](c3ccccc3)[C@@H](c3ccccc3)N2[C@@H](c2ccc(O)cc2)[C@]12C(=O)N(C(=O)OCCOC)c1ccc(C#CC3=CCCCC3)cc12
7. CC(CCN1CCCCc2nc(C)c(C)cc21)=NOC(C)CN1CCCCc2nc(C)c(C)cc21 (stereo unspecified)
8. CN1C(=O)C2C=CC(C(O)C(c3ccccc3)c3ccccc3)N(NC(=O)OC(C)(C)C)C2C1=O (stereo unspecified)

// result
1: -0.0668; 2: 0.151; 3: -0.0994; 4: -0.249; 5: -0.48; 6: 1.75; 7: 0.0174; 8: -0.116
